Data credit: the COVID Moonshot data (paper PMC11187573)

conditions: 100.0 µM
property-measured: relative solubility at 100 uM

In [3]: df
Out[3]:
                                    compound  reported
 0  Cc1ccc(S(=O)(=O)N2CCN(C(=O)c3cc(=O)[nH]c4ccc(F)cc34)CC2)c(C)c1      0.84
 1       Cc1ccncc1NC(=O)Cc1cccc(OC(F)(F)F)c1      0.98
 2  Cc1cc(C(C)(C)C)ccc1OC[C@H](O)Cn1cnccc1=O (stereo in doubt)         1
 3                    CNCc1c[nH]c2ccc(F)cc12         1
 4         CSc1ccncc1NC(=O)Cc1ccc2c(c1)CCCC2      0.67
 5  C=CC(=O)N(c1ccc(SC)cc1)C(C(=O)Nc1ccc(OC)cc1)c1cccnc1 (stereo not given)      0.77
 6         Cn1cncc1CNC(=O)Nc1cccc(OCC(F)F)n1         1
 7  NS(=O)(=O)c1ccc(N2CCC(Nc3ccc(F)cc3)CC2)cc1      0.89
 8  C=CC(=O)N1CCN(S(=O)(=O)c2ccccc2-c2ccc(Nc3ccc(C#N)cn3)cc2)CC1      0.61
 9  O=C1[C@H](Nc2nccn3cnnc23)CCN1c1cccc(Cl)c1 (stereo in doubt)      0.98
10             Cc1ccncc1NC(=O)Cc1cccc(C#N)c1      1.01
11  Cc1ccc(S(=O)(=O)N2CCN(C(=O)c3cc(=O)[nH]c4cc(F)ccc34)CC2)c(C)c1      0.92
12  Cc1ccc(C)c(S(=O)(=O)N2CCN(C(=O)CCl)CC2)c1      0.98
13  C=CC(=O)N(c1ccc(C(C)(C)C)cc1)C(C(=O)Nc1ccc2c(c1)OCCO2)c1cccnc1 (stereo not given)      0.75
14                 Cc1ccc(NC(=O)Nc2cccnc2)s1      0.96
15                 Cc1ccncc1NC(=O)CCc1ccccn1         1
16  Cc1nnc(NC(=O)[C@@H]2COc3ccc(Cl)cc32)n1C1CC1 (stereo in doubt)         1
17     Cc1nn(C(C)C)c(C)c1CC(=O)Nc1nncn1C1CC1         1
18  CCCN(CC1COc2ccccc2O1)C(=O)c1cc(=O)[nH]c2cc(F)ccc12 (stereo not given)      0.98
19                 Cc1nnc(CC(=O)Nc2cccnc2)s1      0.99
20      O=C(CCl)Nc1cccc(-c2ccc3c(c2)CCCC3)c1      0.87
21          Cn1nnnc1NC(=O)Cc1csc(C(C)(C)C)n1         1
22  CCCc1cc2c(cc1S(=O)(=O)N1CCN(c3ccccc3)CC1)OCO2      0.92
23                     O=C1Nc2ccc(Br)cc2C1=O      0.99
24   O=C(C1CCN(c2ccncc2)CC1)N1CCS(=O)(=O)CC1         1
25  CCN(CC1COc2ccccc2O1)C(=O)c1cc(=O)[nH]c2ccc(Cl)cc12 (stereo not given)      0.89
26  C=CC(=O)N(C1CCC2(CCCC2)C1)C(C(=O)NC(C)(C)C)c1cccnc1 (stereo not given)      0.99
27  C=CC(=O)N(c1ccc(C(C)OC)cc1)C(C(=O)Nc1ccccc1Br)c1cccnc1 (stereo not given)      0.84
28  CO[C@@H](C)C(=O)Nc1cnccc1C (stereo in doubt)      1.01
29                  O=C(Cc1cccnc1)NCc1ccccc1         1
30           COc1cc(Cl)cc(OC(=O)Nc2cccnc2)c1         1
31  CN(CC1COc2ccccc2O1)C(=O)c1cc(=O)[nH]c2cc(F)ccc12 (stereo not given)      0.99
32      O=C(Cc1c[nH]c2ncccc12)NCc1ccc(Cl)cc1      0.95
33     N#Cc1ccc(CNC(=O)Cc2c[nH]c3ncccc23)cc1      0.99
34      O=C(Cc1cncnc1)Nc1cccc(CCCc2ccccc2)c1      0.94
35  C=CC(=O)N(c1ccc(CC)c(I)c1)C(C(=O)NC(C)(C)C)c1cccnc1 (stereo not given)      0.93
36           N#Cc1cccc(NC(=O)Nc2cncc(N)c2)c1         1
37  Cc1ncc2c(n1)CCC(NC(=O)NCc1cccc(N3C(=O)NC4(CCCC4)C3=O)c1)C2 (stereo not given)      0.97
38   O=C(CCl)N1CCCc2cc(NCc3ccc(F)cc3Cl)ccc21      0.39
39                O=C(CCl)N1CCN(Cc2cccs2)CC1         1
40  C=CC(=O)N(C1CCCC(C(C)C)CC1)C(C(=O)NC(C)(C)C)c1cccnc1 (stereo not given)      0.95
41  Cc1ccncc1NC(=O)Cc1cc(Cl)cc(OC2CC(=O)N2)c1 (stereo not given)         1
42  C=CC(=O)N(c1ccc(C(F)(F)F)cc1)C(C(=O)NCCc1cccc(F)c1)c1cccnc1 (stereo not given)      0.94
43        O=C(NCCN1CCN(C(=O)CCl)CC1)c1ccccc1      1.01
44       O=C(Cc1c[nH]c2ncccc12)Nc1cccc(Cl)c1      0.97

---

settings: 100.0 µM
property-measured: relative solubility at 100 uM

                                    molecule  reported
 0  O=S1(=O)CCC(N2CCN(c3nc(-c4cccnc4)nc4ccccc34)CC2)C1 (stereo not given)      0.94
 1             Cc1cc(C)cc(NC(=O)Cn2cncc2C)c1         1
 2                      Cc1ccncc1Cn1ccccc1=O         1
 3  C=CC(=O)N(c1ccc2ncsc2c1)C(C(=O)NC(C)(C)C)c1cccnc1 (stereo not given)         1
 4         Cc1ccncc1NC(=O)Cn1ccc2ccc(Cl)cc21      0.98
 5  C=CC(=O)N(c1ccc(C(C)(C)C)cc1)C(C(=O)NC1CC1)c1cccnc1 (stereo not given)         1
 6  C=CC(=O)N(c1ccc(C(C)(C)C)cc1)C(C(=O)NC(C)(C)C)c1cncc2ccccc12 (stereo not given)      0.56
 7             O=C(Nc1cnccc1Cl)c1cc(Cl)ccc1O      0.98
 8         O=C(CCl)N1CCN(Cc2cccc3ccccc23)CC1      0.98
 9  Cc1ccnc(C)c1NC(=O)C(C)c1ccc(F)c(F)c1 (stereo not given)         1
10                     O=C1Nc2cc(Br)ccc2C1=O      1.01
11             O=C(N/N=C/c1c[nH]cn1)C1CCCCC1         1
12  COc1ccccc1N1CCN(C(=O)c2cc(=O)[nH]c3ccccc23)CC1      0.99
13              N#Cc1ccc(NC(=O)Nc2cccnc2)cc1         1
14  O=C(Nc1nc2ccc(F)cn2n1)C1CCOc2ccc(Cl)cc21 (stereo not given)      0.99
15  O=C(Cc1ccccc1)Nc1cccc(OC2CC(=O)N2)c1 (stereo not given)         1
16  C=CC(=O)N(c1ccc(C(F)(F)F)cc1)C(C(=O)NCCc1cccc(F)c1)c1cncc(C)c1 (stereo not given)      0.73
17     O=C(/C=C/C=C/c1ccc2c(c1)OCO2)N1CCCCC1      0.97
18       Cc1cccc(NC(=O)Cn2c(=O)oc3ccccc32)c1      0.94
19       COCCc1ccc(Cl)cc1CN1CCN(C(=O)CCl)CC1      0.99
20              Cc1ccncc1NC(=O)CCc1ccc(F)cc1         1
21   N#Cc1ccc(Nc2ccc(NC(=O)Nc3cccnc3)cc2)nc1      0.91
22  CCC(=O)NCC[C@@H]1CCc2ccc3c(c21)CCO3 (stereo in doubt)         1
23      O=C(Cc1c[nH]c2ncccc12)NCc1ccc(Cl)cn1         1
24  C=CC(=O)N(c1ccc2ncsc2c1)C(C(=O)Nc1ccc(Cl)cc1)c1cccnc1 (stereo not given)      0.69
25  C=CC(=O)N(c1ccc(C(C)(C)C)cc1)C(C(=O)NCc1cccnc1)c1cccnc1 (stereo not given)      0.96
26  CCC(NC(=O)NCc1cnccn1)c1ccccc1OCC(=O)N1CCCC1 (stereo not given)         1
27                 Cc1coc(NC(=O)Nc2cccnc2)n1         1
28  C=CC(=O)N(c1ccc(C2(C)CC2)cc1)C(C(=O)Nc1ccc(OC)cc1)c1cccnc1 (stereo not given)      0.62
29  C=CC(=O)N(c1ccc2c(ccn2C)c1)C(C(=O)NC(C)(C)C)c1cccnc1 (stereo not given)         1
30  O=C(Cc1cc(Cl)c2c(c1)OCCO2)Nc1cnccc1-c1ccccc1      0.94
31  N#Cc1ccc(S(=O)(=O)N2CCN(C(=O)c3cc(=O)[nH]c4cc(F)ccc34)CC2)cc1      0.94
32    N#Cc1cc(CN2CCN(C(=O)CCl)CC2)c2ccccc2c1      0.79
33                 Cc1nnc(NC(=O)Nc2cccnc2)s1      0.99
34  O=C(Nc1nnc(-c2ccccn2)o1)C1CCN(S(=O)(=O)c2ccc(F)cc2)CC1      0.96
35  CN(C(=O)Cc1noc2ccccc12)c1ccc(NC(=O)OC(C)(C)C)cc1       0.7
36  CCCNC(=O)C(C)NC(=O)N(C)Cc1csc(C)n1 (stereo not given)         1
37  CCCSCC(=O)C(C#N)C(=O)Nc1ccccc1F (stereo not given)         1
38  C=CC(=O)N(c1ccc(C(C)(C)C)cc1)C(C(=O)NCCc1cccc(F)c1)c1cncc(Cl)c1 (stereo not given)      0.32
39  Cc1nnc(C2Cc3ccccc3CN2C(=O)CCl)o1 (stereo not given)      0.99
40  C=CC(=O)N(c1ccc(C(C)(C)C)cc1)C(C(=O)NCCc1cccc(F)c1)c1cccnc1 (stereo not given)      0.55
41  C=CC(=O)N(c1ccc2ncsc2c1)C(C(=O)Nc1ccc(OC)cc1)c1cccnc1 (stereo not given)      0.87
42  O=C(Nc1ccnnc1)NC(Cc1ccccc1)C(=O)N1CCCC1 (stereo not given)         1
43  NC(=O)CCN(C(=O)CCl)C1CCS(=O)(=O)C1 (stereo not given)         1
44  Cc1cc(C)cc(CS(=O)(=O)N[C@@]23COC[C@@H]2C3)c1 (stereo in doubt)         1
